# credit: ChEMBL document CHEMBL4689842

System: Fibroblast
Test Details: Multiplex assay against human fibroblast
Assay type: toxicity, cell-based
Details: 12 h, 1 µM, compound concentration 1 uM, replicate 2
Quantity: Population Hoechst High Intensity Objects (%)

molecule=Cc1c[nH]c2nccc(Oc3c(F)cc(Nc4cc(Cl)nc(N)n4)cc3F)c12 endpoint_value=5
molecule="Cc1cccc(CN2CCN(C(c3ccccc3)c3ccc(Cl)cc3)CC2)c1.Cl.Cl (stereo not drawn)" endpoint_value=8
molecule=C[C@]12CC[C@@H]3c4ccc(O)cc4CC[C@H]3[C@@H]1CC[C@@H]2O endpoint_value=5
molecule=CNC(=O)Nc1ccc(-c2nc(N3CC4CCC(C3)O4)c3cnn(C4CCC5(CC4)OCCO5)c3n2)cc1 endpoint_value=10
molecule=CC(C)CC(=O)Nc1[nH]nc2c1CN(C(=O)C1CCN(C)CC1)C2(C)C endpoint_value=46
molecule=CNC(=O)Nc1ccc2c(c1)[C@@]1(CC2)OC(=O)N(CC(=O)N(Cc2ccc(F)cc2)[C@@H](C)C(F)(F)F)C1=O endpoint_value=34
molecule=Cc1ccc(C)c(Oc2ccncc2C(=O)N2CCN(C3CC3)c3ccccc32)c1 endpoint_value=10
molecule=CN1CCN(Cc2ccc(Nc3ncc(Cl)c(Nc4ccccc4S(=O)(=O)N(C)C)n3)cc2)CC1 endpoint_value=10

* * *

System: U2OS
Test Details: Multiplex assay against U2OS
Type: toxicity, cell-based
Details: human, 24 h, 10 µM, compound concentration 10 uM, replicate 1
Quantity: Population Normal (%)

compound=O=c1[nH]c2ccccc2n1C1CCN(Cc2ccc(-c3[nH]c4cc5ncnc5cc4nc3-c3ccccc3)cc2)CC1 quantity="Population Normal (%)" endpoint_value=93
compound=Cc1ccc(C)c(Oc2ccncc2C(=O)N2CCN(C3CC3)c3ccccc32)c1 quantity="Population Normal (%)" endpoint_value=89
compound=CCc1ccc(OCc2ccccc2C(=O)Nc2ccc3nc(C)cc(N)c3c2)cc1.Cl quantity="Population Normal (%)" endpoint_value=87
compound=COC(=O)C1=C(C)NC(C)=C(C(=O)OCCCN2CCC(c3ccccc3)(c3ccccc3)CC2)[C@H]1c1cccc([N+](=O)[O-])c1 quantity="Population Normal (%)" endpoint_value=85
compound=COc1cc(Nc2nccc(-c3cnn4nc(OC)ccc34)n2)cc(C(F)(F)F)c1 quantity="Population Normal (%)" endpoint_value=81
compound=CC(C)NC(=O)N1CC[C@H](NC2=Nc3cc(F)ccc3N(CC(F)F)c3ccc(Cl)cc32)C1 quantity="Population Normal (%)" endpoint_value=93
compound=CNC(=O)Nc1ccc(-c2nc(N3CC4CCC(C3)O4)c3cnn(C4CCC5(CC4)OCCO5)c3n2)cc1 quantity="Population Normal (%)" endpoint_value=90
compound="CCc1nn(CCCN2CCN(c3cccc(Cl)c3)CC2)c(=O)n1CCOc1ccccc1.Cl [NEFAZODONE HYDROCHLORIDE]" quantity="Population Normal (%)" endpoint_value=92
compound=Cc1nc(N2CC[C@H](O)C2)ncc1-c1cc(C(F)(F)F)cc2[nH]ncc12 quantity="Population Normal (%)" endpoint_value=95
compound=C=CC(=O)Nc1ccc2[nH]c(=O)n(C3CCN(Cc4ccc(-c5nc6cc[nH]c(=O)c6cc5-c5ccccc5)cc4)CC3)c2c1 quantity="Population Normal (%)" endpoint_value=97
compound=COc1ccc(-c2ccc3ncc4c(c3c2)n(-c2ccc(N3CCNCC3)c(C(F)(F)F)c2)c(=O)n4C)cn1.O=C(O)/C=C\C(=O)O quantity="Population Normal (%)" endpoint_value=84
compound=CC(C)(C)NC[C@H](O)COc1nsnc1N1CCOCC1 quantity="Population Normal (%)" endpoint_value=94
compound=CC(C)CC(=O)Nc1[nH]nc2c1CN(C(=O)C1CCN(C)CC1)C2(C)C quantity="Population Normal (%)" endpoint_value=95
compound=CCCSc1nc(N[C@@H]2C[C@H]2c2ccc(F)c(F)c2)c2nnn([C@@H]3C[C@H](OCCO)[C@@H](O)[C@H]3O)c2n1 quantity="Population Normal (%)" endpoint_value=93
compound=CC(C)Oc1ccccc1C(=O)Nc1ccccc1C(=O)Nc1cccc(S(=O)(=O)C(F)(F)F)c1 quantity="Population Normal (%)" endpoint_value=93
compound=C=CC(=O)Nc1cccc(Oc2nc(Nc3ccc(N4CCN(C)CC4)cc3OC)ncc2Cl)c1 quantity="Population Normal (%)" endpoint_value=96
compound="O=C(c1cc2c(cc1F)OC(c1ccc(F)cc1)(c1ccc(Cl)cc1Cl)O2)N1CCOCC1 (stereo unspecified)" quantity="Population Normal (%)" endpoint_value=91
compound="COc1cc2ncn(-c3cc(OCc4ccccc4C(F)(F)F)c(C(N)=O)s3)c2cc1OC [GW843682X]" quantity="Population Normal (%)" endpoint_value=90
compound=C=CC(=O)Nc1cccc(Sc2nc(Nc3ccc(N4CCN(C)CC4)cc3)ncc2Cl)c1 quantity="Population Normal (%)" endpoint_value=98
compound="Cc1ccc2c(c1)c1c(n2CCc2ccc(C)nc2)CCN(C)C1 [LATREPIRDINE]" quantity="Population Normal (%)" endpoint_value=91
compound=COc1ccccc1CN[C@H]1C2CCN(CC2)[C@H]1C(c1ccccc1)c1ccccc1 quantity="Population Normal (%)" endpoint_value=91

* * *

System: HEK-293T
Test Details: Multiplex assay against HEK293T
Assay type: toxicity, cell-based
Details: human, 48 h, 1 µM, compound concentration 1 uM, replicate 1
Returns: string. Value is true (1) if measured Population Mitotic Cells (%) is below 40%, and false (0) if it is greater than or equal to it.

compound="CCc1nn(CCCN2CCN(c3cccc(Cl)c3)CC2)c(=O)n1CCOc1ccccc1.Cl [NEFAZODONE HYDROCHLORIDE]" cat="false (0)"
compound=COc1cc(Nc2nccc(-c3cnn4nc(OC)ccc34)n2)cc(C(F)(F)F)c1 cat="true (1)"
compound=CNC(=O)Nc1ccc(-c2nc(N3CC4CCC(C3)O4)c3cnn(C4CCC5(CC4)OCCO5)c3n2)cc1 cat="true (1)"
compound="O=C(c1cc2c(cc1F)OC(c1ccc(F)cc1)(c1ccc(Cl)cc1Cl)O2)N1CCOCC1 (configuration not stated)" cat="false (0)"
compound="COc1cc2ncn(-c3cc(OCc4ccccc4C(F)(F)F)c(C(N)=O)s3)c2cc1OC [GW843682X]" cat="false (0)"
compound="CCCSc1nc(N[C@@H]2C[C@H]2c2ccc(F)c(F)c2)c2nnn([C@@H]3C[C@H](OCCO)[C@@H](O)[C@H]3O)c2n1 [TICAGRELOR]" cat="false (0)"
compound="COC(=O)C1=C(C)NC(C)=C(C(=O)OCCCN2CCC(c3ccccc3)(c3ccccc3)CC2)[C@H]1c1cccc([N+](=O)[O-])c1 [NIGULDIPINE]" cat="true (1)"
compound="CC1=C(C(=O)Nc2cc3cn[nH]c3cc2F)C(c2ccc(C(F)(F)F)cc2)CC(=O)N1 (configuration not stated)" cat="false (0)"
compound="Cc1c[nH]c2nccc(Oc3c(F)cc(Nc4cc(Cl)nc(N)n4)cc3F)c12 [BAY-549]" cat="false (0)"
compound=CCc1ccc(OCc2ccccc2C(=O)Nc2ccc3nc(C)cc(N)c3c2)cc1.Cl cat="true (1)"

* * *

Test system: U2OS
Test Details: Multiplex assay against U2OS
Type: toxicity, cell-based
Details: human, 12 h, 1 µM, compound concentration 1 uM, replicate 2
Returns: string. Value is 1.0 if measured Population Membrane Permeable-Phenotype (%) is below 20%, and 0.0 if it is greater than or equal to it.

molecule=CCc1ccc(OCc2ccccc2C(=O)Nc2ccc3nc(C)cc(N)c3c2)cc1.Cl tested_system=U2OS cat=0.0
molecule=C[C@]12CC[C@@H]3c4ccc(O)cc4CC[C@H]3[C@@H]1CC[C@@H]2O tested_system=U2OS cat=1.0
molecule=CCOC(=O)Nc1cc(-c2ccc(C)c(NS(C)(=O)=O)c2)nn2c(C)nnc12 tested_system=U2OS cat=1.0
molecule=COc1ccc(-c2ccc3ncc4c(c3c2)n(-c2ccc(N3CCNCC3)c(C(F)(F)F)c2)c(=O)n4C)cn1.O=C(O)/C=C\C(=O)O tested_system=U2OS cat=0.0
molecule=C=CC(=O)Nc1cccc(Oc2nc(Nc3ccc(N4CCN(C)CC4)cc3OC)ncc2Cl)c1 tested_system=U2OS cat=1.0
molecule=Cl.O=C(O)c1cc(-c2ccc(C3CCNCC3)cc2)c2ccc(-c3ccc(C(F)(F)F)cc3)cc2c1 tested_system=U2OS cat=1.0
molecule="Cc1ccc2c(c1)c1c(n2CCc2ccc(C)nc2)CCN(C)C1 [LATREPIRDINE]" tested_system=U2OS cat=1.0
molecule=CNC(=O)Nc1ccc2c(c1)[C@@]1(CC2)OC(=O)N(CC(=O)N(Cc2ccc(F)cc2)[C@@H](C)C(F)(F)F)C1=O tested_system=U2OS cat=0.0
molecule="CC1=C(C(=O)Nc2cc3cn[nH]c3cc2F)C(c2ccc(C(F)(F)F)cc2)CC(=O)N1 (centres undefined)" tested_system=U2OS cat=1.0

* * *

Examples of compounds with documented Population Mitochondria Different-Phenotype (%) follow.
Tested on: U2OS
Test Details: Multiplex assay against U2OS
Type: toxicity, cell-based
Details: human, 24 h, 1 µM, compound concentration 1 uM, replicate 1
Quantity: Population Mitochondria Different-Phenotype (%)

compound="CCc1nn(CCCN2CCN(c3cccc(Cl)c3)CC2)c(=O)n1CCOc1ccccc1.Cl [NEFAZODONE HYDROCHLORIDE]" display_unit=% endpoint_value=21
compound=C=CC(=O)Nc1ccc2[nH]c(=O)n(C3CCN(Cc4ccc(-c5nc6cc[nH]c(=O)c6cc5-c5ccccc5)cc4)CC3)c2c1 display_unit=% endpoint_value=22
compound=COc1ccc(-c2ccc3ncc4c(c3c2)n(-c2ccc(N3CCNCC3)c(C(F)(F)F)c2)c(=O)n4C)cn1.O=C(O)/C=C\C(=O)O display_unit=% endpoint_value=87
